EXPERIMENT_DESCRIPTION: Metabolic stability in dog plasma assessed as compound remaining at 1 ug/ml after 30 mins
Format: ADME, cell-free, Canis lupus familiaris
CONDITION_SUMMARY: read-out: Stability
PROPERTY_MEASURED: remaining at 0.5 h, 1 ug/ml

Known remaining at 0.5 h, 1 ug/ml results, listed for orientation:
COMPOUND | remaining at 0.5 h, 1 ug/ml
CC(C)[C@H](NP(=O)(OC[C@H]1O[C@@H](n2cnc3c(=O)[nH]c(N)nc32)[C@](C)(O)[C@@H]1O)Oc1cccc2ccccc12)C(=O)OCc1ccccc1Cl (stereo partly drawn) | 100%
CC(C)[C@H](NP(=O)(OC[C@H]1O[C@@H](n2cnc3c(=O)[nH]c(N)nc32)[C@](C)(O)[C@@H]1O)Oc1ccc2ccccc2c1)C(=O)OCc1ccccc1 (stereo partly drawn) | 95%

# remaining at 0.5 h, 1 ug/ml of CC(C)[C@H](NP(=O)(OC[C@H]1O[C@@H](n2cnc3c(=O)[nH]c(N)nc32)[C@](C)(O)[C@@H]1O)Oc1cccc2ccccc12)C(=O)OCc1ccc(Cl)cc1 (stereo partly drawn) = 89%

----------
EXPERIMENT_DESCRIPTION: Cytotoxicity against human HEL cells after 72 hrs by celltiter-glo assay
Type: cell-based
PROPERTY_MEASURED: CC50 at 72 h

The reported value for C[C@H](NP(=O)(OC[C@H]1O[C@@H](n2cnc3c(=O)[nH]c(N)nc32)[C@](C)(O)[C@@H]1O)Oc1cccc2ccccc12)C(=O)O[C@@H](C)c1ccccc1 (stereo partly specified) in terms of CC50 at 72 h is > 100 µM

----------
EXPERIMENT_DESCRIPTION: Metabolic stability in dog plasma assessed as compound remaining at 1 ug/ml after 4 hrs
Type: ADME, cell-free, Canis lupus familiaris
CONDITION_SUMMARY: read-out: Stability
# remaining at 4 h, 1 ug/ml per record follows
Provide a numeric answer, followed by its unit.

Consider the worked cases shown below.
COMPOUND | PROPERTY_MEASURED | VALUE
CC(C)[C@@H](NP(=O)(OC[C@H]1O[C@@H](n2cnc3c(=O)[nH]c(N)nc32)[C@](C)(O)[C@@H]1O)Oc1cccc2ccccc12)C(=O)OCc1ccccc1 (stereo partly specified) | remaining at 4 h, 1 ug/ml | 61%
C[C@H](NP(=O)(OC[C@H]1O[C@@H](n2cnc3c(=O)[nH]c(N)nc32)[C@](C)(O)[C@@H]1O)Oc1cccc2ccccc12)C(=O)OC1CCCCC1 (stereo partly specified) | remaining at 4 h, 1 ug/ml | 100%
CC(OC(=O)[C@H](C)NP(=O)(OC[C@H]1O[C@@H](n2cnc3c(=O)[nH]c(N)nc32)[C@](C)(O)[C@@H]1O)Oc1cccc2ccccc12)c1ccccc1 (mixture of isomers) | remaining at 4 h, 1 ug/ml | 93%
CCCCCOC(=O)[C@H](C)NP(=O)(OC[C@H]1O[C@@H](n2cnc3c(=O)[nH]c(N)nc32)[C@](C)(O)[C@@H]1O)Oc1cccc2ccccc12 (stereo partly specified) | remaining at 4 h, 1 ug/ml | 98%

Summary for this compound, C[C@H](NP(=O)(OC[C@H]1O[C@@H](n2cnc3c(=O)[nH]c(N)nc32)[C@](C)(O)[C@@H]1O)Oc1cccc2ccccc12)C(=O)O[C@@H](C)c1ccccc1 (stereo partly specified) : remaining at 4 h, 1 ug/ml is 92%

Record CC(C)[C@H](NP(=O)(OC[C@H]1O[C@@H](n2cnc3c(=O)[nH]c(N)nc32)[C@](C)(O)[C@@H]1O)Oc1ccc2ccccc2c1)C(=O)OCc1ccccc1 (stereo partly specified) . Reported remaining at 4 h, 1 ug/ml: 99%
